Biological target: human P2X3 receptor (Homo sapiens (Human), UniProt P56373)
Sequence (P56373 whole entry): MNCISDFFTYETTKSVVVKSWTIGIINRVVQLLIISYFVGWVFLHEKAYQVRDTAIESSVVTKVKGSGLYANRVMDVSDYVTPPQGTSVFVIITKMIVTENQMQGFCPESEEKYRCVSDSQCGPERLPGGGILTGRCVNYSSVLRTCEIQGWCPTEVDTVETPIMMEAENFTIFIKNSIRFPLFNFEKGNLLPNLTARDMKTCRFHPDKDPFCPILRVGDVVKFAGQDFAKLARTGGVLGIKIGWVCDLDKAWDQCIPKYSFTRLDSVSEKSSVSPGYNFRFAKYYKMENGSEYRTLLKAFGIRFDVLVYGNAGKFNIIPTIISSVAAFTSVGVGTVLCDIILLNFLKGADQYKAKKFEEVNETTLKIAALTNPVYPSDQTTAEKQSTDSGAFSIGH
Assay: Evaluation of human P2X3 receptor inhibitory activity (Test Example 1-1, FDSS 3000, 96-well, 50 nM ATP)
Assay type: cell-based
Settings: human P2X3 receptor in C6BU-1 cells; Test Example 1-1 (compounds I-001 to I-300)
pIC50: −log10 of the molar value.
We'd kindly ask you to apply these pIC50 classes: L (below 7), M (7 to below 8), H (8 or more)

>  <smiles-structure>
CCc1cn(Cc2ccc(Cl)cc2)c(Nc2ccc(Oc3ncc(C(=O)O)s3)cc2)nc1=O

>  <tested-system>
human P2X3 receptor (Homo sapiens (Human), UniProt P56373)

>  <class-assignment>
L

$$$$
>  <smiles-structure>
O=c1c(-c2ccccn2)c[nH]/c(=N\c2ccc(Oc3ccon3)cc2)n1Cc1ccc(Cl)cc1

>  <tested-system>
human P2X3 receptor (Homo sapiens (Human), UniProt P56373)

>  <class-assignment>
L

$$$$
>  <smiles-structure>
CCn1c(=O)cc(Nc2cc(C)c(Oc3cccc(C(=O)O)c3)cn2)n(Cc2ccc(Cl)cc2)c1=O

>  <tested-system>
human P2X3 receptor (Homo sapiens (Human), UniProt P56373)

>  <class-assignment>
L

$$$$
>  <smiles-structure>
CCC(=O)Nc1c[nH]/c(=N\c2ccc(Oc3cccc(C#N)n3)cc2)n(Cc2ccc(Cl)cc2)c1=O

>  <tested-system>
human P2X3 receptor (Homo sapiens (Human), UniProt P56373)

>  <class-assignment>
H

$$$$
>  <smiles-structure>
NC(=O)c1c[nH]/c(=N\c2ccc(Oc3ccc(F)cn3)cc2)n(Cc2ccc(Cl)cc2)c1=O

>  <tested-system>
human P2X3 receptor (Homo sapiens (Human), UniProt P56373)

>  <class-assignment>
M

$$$$
>  <smiles-structure>
Cc1ccc(Oc2ccc(/N=c3\[nH]cc(C(=O)O)c(=O)n3Cc3ccc(Cl)cc3)cc2)nn1

>  <tested-system>
human P2X3 receptor (Homo sapiens (Human), UniProt P56373)

>  <class-assignment>
L

$$$$

*Q* Which class is correct for the following molecule? CCc1oc2ccc(/N=c3\[nH]cc(NS(=O)(=O)C4CCOCC4)c(=O)n3Cc3ccc(Cl)cc3)cc2c1C
*A* M

*Q* Consider CCC(=O)Nc1c[nH]/c(=N\c2ccc(Oc3ccnc(C#N)c3)cc2)n(Cc2ccc(Cl)cn2)c1=O . To which pIC50 class does it belong?
*A* L

*Q* Into which bin does this molecule go? CCOC(=O)c1sc(Oc2ccc(Nc3cc(=O)n(CC)c(=O)n3Cc3ccc(Cl)cc3)cc2)nc1C
*A* M

*Q* Using the reported pIC50, which band applies to CCOC(=O)c1cnc(Oc2ccc(Nc3cc(=O)n(CC)c(=O)n3Cc3ccc(Cl)cc3)cc2)s1 ?
*A* H
